- Tested on: MDA-N
- EXPERIMENT: NCI tumour cell line growth inhibition, 48 h
Where a SMILES comes first, the peptide text is derived from it. [ ]: non-standard residue; d: D form. The star is where a group is joined. NMeAc5c = CNC1(C(=O)O)CCCC1; Boc = CC(C)(C)OC(=O)*; OBn = c1ccc(CO*)cc1

[
  {
    "COMPOUND": "[N-]=[N+]=NC[C@H]1OCO[C@H](CN=[N+]=[N-])[C@@H](OCCOCCCl)[C@@H]1OCCOCCCl",
    "TGI": "> 100 µM"
  },
  {
    "COMPOUND": "Cc1ccc(Cl)c2c(N=Nc3ccccc3[N+](=O)[O-])c(O)[nH]c12",
    "TGI": "> 100 µM"
  },
  {
    "COMPOUND": "O=C1/C(=C/c2ccc(O)c(O)c2)CCC/C1=C\\c1ccc(O)c(O)c1",
    "TGI": "14.6 µM"
  },
  {
    "COMPOUND": "CCCCCCc1cc2cc(-c3csc(CC#N)n3)c(=O)oc2cc1O",
    "TGI": "> 100 µM"
  },
  {
    "COMPOUND": "c1ccc(-c2nc(-c3ccccc3SSc3ccccc3-c3nc(-c4ccccc4)nn3-c3ccccc3)n(-c3ccccc3)n2)cc1",
    "TGI": "> 100 µM"
  },
  {
    "COMPOUND": "CC(C)(C)N1CSC(=S)N(Cc2ccco2)C1",
    "TGI": "16.5 µM"
  },
  {
    "COMPOUND": "C=C1C(=O)O[C@@H]2C(=O)[C@@H](C)CCC/C(C)=C/CC[C@@]3(C)O[C@@H]3C[C@@H]12",
    "TGI": "> 100 µM"
  },
  {
    "COMPOUND": "CN(C(=O)C(Cc1ccccc1)NC(=O)OC(C)(C)C)C1(C(=O)NC(Cc2ccccc2)C(=O)OCc2ccccc2)CCCC1 (stereo not drawn) (Boc-Phe-[NMeAc5c]-Phe-OBn; configuration not given here)",
    "TGI": "65.4 µM"
  },
  {
    "COMPOUND": "COc1cc2nc3n(c(=O)c2cc1OC)-c1ccc([N+](=O)[O-])cc1C3=O",
    "TGI": "> 100 µM"
  },
  {
    "COMPOUND": "N#Cc1c(N2CCCC2)ncn(-c2ccccc2)c1=O",
    "TGI": "> 100 µM"
  },
  {
    "COMPOUND": "Nc1c2c(nc3ccccc13)-c1ccccc1CC2",
    "TGI": "16 µM"
  },
  {
    "COMPOUND": "N#CC1(C#N)N[C@@H](c2ccsc2)[C@H]2C(=O)N(c3ccccc3)C(=O)[C@H]21",
    "TGI": "> 100 µM"
  },
  {
    "COMPOUND": "Cc1nc2n(c1/C=C1/C(=O)Nc3cccc(Cl)c31)CCS2",
    "TGI": "> 100 µM"
  },
  {
    "COMPOUND": "Cc1ccc(-c2n[nH]c(=O)n2N2C(=O)c3ccccc3C2=O)cc1",
    "TGI": "> 100 µM"
  },
  {
    "COMPOUND": "CC(C)=CCC\\C(C)=C/C=C/C(C)=C\\C=C\\C(C)=C/C=C/C=C(C)\\C=C\\C=C(C)/C=C/C=C(/C)CCC=C(C)C",
    "TGI": "> 100 µM"
  },
  {
    "COMPOUND": "CC(=O)NC(Cc1ccc(O)cc1)C(=O)O (stereo not given)",
    "TGI": "> 100 µM"
  },
  {
    "COMPOUND": "O=C1CSC(c2ccc(Cl)cc2)N1c1ccc(Oc2ccc(Cl)cc2)c(Cl)c1 (stereo not given)",
    "TGI": "30.4 µM"
  },
  {
    "COMPOUND": "CN1CCc2cc(N)cc3c2C1Cc1ccc(O)c(O)c1-3 (stereo not given)",
    "TGI": "> 100 µM"
  },
  {
    "COMPOUND": "O=C1/C(=C\\c2ccccc2)C(NC2CCCCC2)c2ccccc21 (stereo not given)",
    "TGI": "3.8 µM"
  },
  {
    "COMPOUND": "CC1(C)N=[N+]([O-])C1(C)C",
    "TGI": "> 100 µM"
  }
]
